- TESTED TARGET: UniProtKB P62937
- ASSAY NAME: Inhibitor binding to cyclophilin proteins by SPR, CypA
- Set-up: unit not given here
- SETUP CONDITIONS: 1:1 binding model
Starred links: 1 amine or outer side, 2 acyl side, 3 side chain; linkers in the order of their positions; H or OH if unused. Non-standard residues stand in square brackets, D forms with d. Residues, ends and D or L forms follow the SMILES beside them. X5 = C[C@H](COC(=O)N1CCN(C)CC1)[C@@H](C(=O)[*:2])N(C)[*:1]; MeBmt = C/C=C/C[C@@H](C)[C@@H](O)[C@H](NC)C(=O)O; NMeL = CN[C@@H](CC(C)C)C(=O)O; NMeV = CN[C@H](C(=O)O)C(C)C; dNMeA = CN[C@H](C)C(=O)O; Abu = CC[C@H](N)C(=O)O
ASSAY ENDPOINT: CypA Kd

Returns the measured CypA Kd for the input compound. Input: C/C=C/C[C@@H](C)[C@@H](O)[C@H]1C(=O)N[C@@H](CC)C(=O)N(C)[C@H](C)C(=O)N(C)[C@@H]([C@H](C)COC(=O)N2CCN(C)CC2)C(=O)N[C@@H](C(C)C)C(=O)N(C)[C@@H](CC(C)C)C(=O)N[C@@H](C)C(=O)N[C@H](C)C(=O)N(C)[C@@H](CC(C)C)C(=O)N(C)[C@@H](CC(C)C)C(=O)N(C)[C@@H](C(C)C)C(=O)N1C [Compound 2.5.9] (cyclo(A[dA][NMeL][NMeL][NMeV][MeBmt][Abu][dNMeA][X5]V[NMeL]))
0.8

---

- TESTED TARGET: UniProtKB P30405
- Sequence (P30405 30-207): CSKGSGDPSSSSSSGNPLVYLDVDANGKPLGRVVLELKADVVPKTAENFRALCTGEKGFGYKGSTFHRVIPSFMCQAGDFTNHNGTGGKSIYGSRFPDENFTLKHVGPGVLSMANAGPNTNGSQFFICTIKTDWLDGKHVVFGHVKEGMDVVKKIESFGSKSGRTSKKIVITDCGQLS
- ASSAY NAME: Inhibitor binding to cyclophilin proteins by SPR, CypF
- SETUP CONDITIONS: 1:1 binding model
- Experimental: Method 1: Measuring Inhibitor Binding to Cyclophilin Proteins Binding of inhibitors to expressed cyclophilins was determined using surface plasmon resonance (SPR) experiments. Briefly, avi-tagged cyclophilin proteins with mono-biotinylation were immobilized onto a Biotin CAPture chip (GE Healthcare, cat. #28920234). […] Data was analyzed using Biacore T200 Evaluation Software Version 1.0 and a 1:1 binding model was applied to fit the data to obtain kon, koff, and KD.
Starred links: 1 amine or outer side, 2 acyl side, 3 side chain; linkers in the order of their positions; H or OH if unused. Non-standard residues stand in square brackets, D forms with d. Residues, ends and D or L forms follow the SMILES beside them. X70 = C[C@H](CCCOC(=O)N1CCN(C)CC1)[C@@H](C(=O)[*:2])N(C)[*:1]; X17 = C[C@H](COCC(C)(C)O)[C@@H](C(=O)[*:2])N(C)[*:1]; MeBmt = C/C=C/C[C@@H](C)[C@@H](O)[C@H](NC)C(=O)O; NMeL = CN[C@@H](CC(C)C)C(=O)O; NMeV = CN[C@H](C(=O)O)C(C)C; dNMeA = CN[C@H](C)C(=O)O; Abu = CC[C@H](N)C(=O)O
ASSAY ENDPOINT: CypF Kd (pM)
# value in pM; strip the unit string

What reported CypF Kd corresponds to C/C=C/C[C@@H](C)[C@@H](O)[C@H]1C(=O)N[C@@H](CC)C(=O)N(C)[C@H](C)C(=O)N(C)[C@@H]([C@H](C)CCCOC(=O)N2CCN(C)CC2)C(=O)N[C@@H](C(C)C)C(=O)N(C)[C@@H](CC(C)C)C(=O)N[C@@H](C)C(=O)N[C@H](C)C(=O)N(C)[C@@H](CC(C)C)C(=O)N(C)[C@@H](CC(C)C)C(=O)N(C)[C@@H](C(C)C)C(=O)N1C [Compound 2.19.7] (cyclo(A[dA][NMeL][NMeL][NMeV][MeBmt][Abu][dNMeA][X70]V[NMeL])) on UniProtKB P30405?
700

Form field - read-out: CypF Kd; system: UniProtKB P30405; submitted item: C/C=C/C[C@@H](C)[C@@H](O)[C@H]1C(=O)N[C@@H](CC)C(=O)N(C)[C@H](C)C(=O)N(C)[C@@H]([C@H](C)COCC(C)(C)O)C(=O)N[C@@H](C(C)C)C(=O)N(C)[C@@H](CC(C)C)C(=O)N[C@@H](C)C(=O)N[C@H](C)C(=O)N(C)[C@@H](CC(C)C)C(=O)N(C)[C@@H](CC(C)C)C(=O)N(C)[C@@H](C(C)C)C(=O)N1C [Compound 2.7] (cyclo(A[dA][NMeL][NMeL][NMeV][MeBmt][Abu][dNMeA][X17]V[NMeL]))
900

---

- TESTED TARGET: cyclophilin A (CypA) (Homo sapiens (Human))
- Sequence (P62937 whole entry): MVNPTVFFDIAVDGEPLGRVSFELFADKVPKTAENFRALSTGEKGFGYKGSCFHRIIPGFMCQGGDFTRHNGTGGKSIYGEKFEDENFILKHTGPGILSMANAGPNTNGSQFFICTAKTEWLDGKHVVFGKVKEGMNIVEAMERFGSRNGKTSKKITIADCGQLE
- ASSAY NAME: Inhibitor binding to cyclophilin proteins by SPR, CypA;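 also: Single-cycle kinetics on a Biacore T200, compound injected at several concentrations for 1 min each at 50 µL/min, then 10 min dissociation, in HEPES pH 7.4 buffer with 3% DMSO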
- Parameters: unit not given here
- SETUP CONDITIONS: 1:1 binding model
Starred links: 1 amine or outer side, 2 acyl side, 3 side chain; linkers in the order of their positions; H or OH if unused. Non-standard residues stand in square brackets, D forms with d. Residues, ends and D or L forms follow the SMILES beside them. X10 = C[C@H](CCCOC(=O)NC1CCN(C)CC1)[C@@H](C(=O)[*:2])N(C)[*:1]; X79 = COCCN1CCN(CC[C@@H](C)[C@@H](C(=O)[*:2])N(C)[*:1])CC1; MeBmt = C/C=C/C[C@@H](C)[C@@H](O)[C@H](NC)C(=O)O; NMeL = CN[C@@H](CC(C)C)C(=O)O; NMeV = CN[C@H](C(=O)O)C(C)C; dNMeA = CN[C@H](C)C(=O)O; Abu = CC[C@H](N)C(=O)O
For each entry below, report its CypA Kd value.
Lab note: jot down the number only; don't add units.

Given the entry C/C=C/C[C@@H](C)[C@@H](O)[C@H]1C(=O)N[C@@H](CC)C(=O)N(C)[C@H](C)C(=O)N(C)[C@@H]([C@H](C)CCN2CCN(CCOC)CC2)C(=O)N[C@@H](C(C)C)C(=O)N(C)[C@@H](CC(C)C)C(=O)N[C@@H](C)C(=O)N[C@H](C)C(=O)N(C)[C@@H](CC(C)C)C(=O)N(C)[C@@H](CC(C)C)C(=O)N(C)[C@@H](C(C)C)C(=O)N1C [Compound 2.18.3] (cyclo(A[dA][NMeL][NMeL][NMeV][MeBmt][Abu][dNMeA][X79]V[NMeL])) , what CypA Kd was observed with cyclophilin A (CypA) (Homo sapiens (Human))?
0.9

Find the measured CypA Kd: item C/C=C/C[C@@H](C)[C@@H](O)[C@H]1C(=O)N[C@@H](CC)C(=O)N(C)[C@H](C)C(=O)N(C)[C@@H]([C@H](C)CCCOC(=O)NC2CCN(C)CC2)C(=O)N[C@@H](C(C)C)C(=O)N(C)[C@@H](CC(C)C)C(=O)N[C@@H](C)C(=O)N[C@H](C)C(=O)N(C)[C@@H](CC(C)C)C(=O)N(C)[C@@H](CC(C)C)C(=O)N(C)[C@@H](C(C)C)C(=O)N1C [Compound 2.19.8] (cyclo(A[dA][NMeL][NMeL][NMeV][MeBmt][Abu][dNMeA][X10]V[NMeL])) , target or system cyclophilin A (CypA) (Homo sapiens (Human)).
0.8

---

- System: peripheral blood mononuclear cells (PBMC)
- ASSAY NAME: Anti-proliferative or immunosuppressive activity, BrdU incorporation in PHA-stimulated PBMC
- Type: cell-based
- SETUP CONDITIONS: PHA 3 μg/ml, 60 hour compound treatment; read-out: EMV PBMC IC50
Starred links: 1 amine or outer side, 2 acyl side, 3 side chain; linkers in the order of their positions; H or OH if unused. Non-standard residues stand in square brackets, D forms with d. Residues, ends and D or L forms follow the SMILES beside them. X78 = CC(C)N1CCN(CCOC[C@@H](C)[C@@H](C(=O)[*:2])N(C)[*:1])CC1; X1 = COC[C@@H]1CN(C[C@H](C)[C@@H](C(=O)[*:2])N(C)[*:1])CCO1; X68 = C[C@H](CCN1CCC(C#N)CC1)[C@@H](C(=O)[*:2])N(C)[*:1]; MeBmt = C/C=C/C[C@@H](C)[C@@H](O)[C@H](NC)C(=O)O; X77 = COC[C@H](C)[C@@H](C(=O)[*:2])N(C)[*:1]; NMeL = CN[C@@H](CC(C)C)C(=O)O; NMeV = CN[C@H](C(=O)O)C(C)C; dNMeA = CN[C@H](C)C(=O)O; Abu = CC[C@H](N)C(=O)O
I'd appreciate it if you could supply pIC50 values for the items below.
Bear in mind: pIC50 is minus log10 of a mol/L concentration; give just that figure.

Quick check: pIC50 of C/C=C/C[C@@H](C)[C@@H](O)[C@H]1C(=O)N[C@@H](CC)C(=O)N(C)[C@H](C)C(=O)N(C)[C@@H]([C@H](C)CCCN2CCC(OC)CC2)C(=O)N[C@@H](C(C)C)C(=O)N(C)[C@@H](CC(C)C)C(=O)N[C@@H](C)C(=O)N[C@H](C)C(=O)N(C)[C@@H](CC(C)C)C(=O)N(C)[C@@H](CC(C)C)C(=O)N(C)[C@@H](C(C)C)C(=O)N1C (stereo in doubt) [Compound 2.19.5] ?
5.05

So what's the measured pIC50 for this one? C/C=C/C[C@@H](C)[C@@H](O)[C@H]1C(=O)N[C@@H](CC)C(=O)N(C)[C@H](C)C(=O)N(C)[C@@H]([C@H](C)CCN2CCC(C#N)CC2)C(=O)N[C@@H](C(C)C)C(=O)N(C)[C@@H](CC(C)C)C(=O)N[C@@H](C)C(=O)N[C@H](C)C(=O)N(C)[C@@H](CC(C)C)C(=O)N(C)[C@@H](CC(C)C)C(=O)N(C)[C@@H](C(C)C)C(=O)N1C [Compound 2.18.2] (cyclo(A[dA][NMeL][NMeL][NMeV][MeBmt][Abu][dNMeA][X68]V[NMeL]))
5.14

Suppose we examine the compound C/C=C/C[C@@H](C)[C@@H](O)[C@H]1C(=O)N[C@@H](CC)C(=O)N(C)[C@H](C)C(=O)N(C)[C@@H]([C@@H](C)CN2CCO[C@H](COC)C2)C(=O)N[C@@H](C(C)C)C(=O)N(C)[C@@H](CC(C)C)C(=O)N[C@@H](C)C(=O)N[C@H](C)C(=O)N(C)[C@@H](CC(C)C)C(=O)N(C)[C@@H](CC(C)C)C(=O)N(C)[C@@H](C(C)C)C(=O)N1C [Compound 2.17.8] (cyclo(A[dA][NMeL][NMeL][NMeV][MeBmt][Abu][dNMeA][X1]V[NMeL])) ; what pIC50 value has been reported?
4.44

Can you share its pIC50? I mean this compound: C/C=C/C[C@@H](C)[C@@H](O)[C@H]1C(=O)N[C@@H](CC)C(=O)N(C)[C@H](C)C(=O)N(C)[C@@H]([C@@H](C)COC)C(=O)N[C@@H](C(C)C)C(=O)N(C)[C@@H](CC(C)C)C(=O)N[C@@H](C)C(=O)N[C@H](C)C(=O)N(C)[C@@H](CC(C)C)C(=O)N(C)[C@@H](CC(C)C)C(=O)N(C)[C@@H](C(C)C)C(=O)N1C [Compound 2.2] (cyclo(A[dA][NMeL][NMeL][NMeV][MeBmt][Abu][dNMeA][X77]V[NMeL]))
4.90

Endpoint output: pIC50 of C/C=C/C[C@@H](C)[C@@H](O)[C@H]1C(=O)N[C@@H](CC)C(=O)N(C)[C@H](C)C(=O)N(C)[C@@H]([C@H](C)COCCN2CCN(C(C)C)CC2)C(=O)N[C@@H](C(C)C)C(=O)N(C)[C@@H](CC(C)C)C(=O)N[C@@H](C)C(=O)N[C@H](C)C(=O)N(C)[C@@H](CC(C)C)C(=O)N(C)[C@@H](CC(C)C)C(=O)N(C)[C@@H](C(C)C)C(=O)N1C [Compound 2.8.5] (cyclo(A[dA][NMeL][NMeL][NMeV][MeBmt][Abu][dNMeA][X78]V[NMeL])) . Value?
5.09
